experiment: inhibitors of firefly luciferase expression or activity, dose response, H4 neuroglioma cells, luminescence (AID 1990); format: functional, cell-based
The source made the active and inactive calls.
A collection of compounds and their measured EC50
MEASURED_PROPERTY: EC50

>  <STRUCTURE>
C=CCn1c(CNc2ccccc2)nnc1SCC(=O)N/N=C/c1ccccc1O

>  <MEASURED_PROPERTY>
EC50

>  <OBSERVED_RESULT>
18.3 µM (active)

$$$$
>  <STRUCTURE>
CCNC(=S)N/N=C/c1cn(Cc2ccccc2F)c2ccccc12

>  <MEASURED_PROPERTY>
EC50

>  <OBSERVED_RESULT>
15.9 µM (active)

$$$$
>  <STRUCTURE>
CCOC(=O)c1cc(CC)sc1NC(=O)CSc1nc2ccccc2c(=O)n1Cc1ccco1

>  <MEASURED_PROPERTY>
EC50

>  <OBSERVED_RESULT>
> 120 µM (not active)

$$$$
>  <STRUCTURE>
CC(=O)c1cccc(NC(=O)CSc2ccc(-c3ccccn3)nn2)c1

>  <MEASURED_PROPERTY>
EC50

>  <OBSERVED_RESULT>
> 120 µM (not active)

$$$$

###

molecular target: High affinity choline transporter 1 (Homo sapiens, UniProt Q9GZV3); test: CHT inhibitors, dose response, cell-based, 5-point CRC, membrane potential dye (AID 504840); assay type: functional
Sequence (Q9GZV3 whole entry): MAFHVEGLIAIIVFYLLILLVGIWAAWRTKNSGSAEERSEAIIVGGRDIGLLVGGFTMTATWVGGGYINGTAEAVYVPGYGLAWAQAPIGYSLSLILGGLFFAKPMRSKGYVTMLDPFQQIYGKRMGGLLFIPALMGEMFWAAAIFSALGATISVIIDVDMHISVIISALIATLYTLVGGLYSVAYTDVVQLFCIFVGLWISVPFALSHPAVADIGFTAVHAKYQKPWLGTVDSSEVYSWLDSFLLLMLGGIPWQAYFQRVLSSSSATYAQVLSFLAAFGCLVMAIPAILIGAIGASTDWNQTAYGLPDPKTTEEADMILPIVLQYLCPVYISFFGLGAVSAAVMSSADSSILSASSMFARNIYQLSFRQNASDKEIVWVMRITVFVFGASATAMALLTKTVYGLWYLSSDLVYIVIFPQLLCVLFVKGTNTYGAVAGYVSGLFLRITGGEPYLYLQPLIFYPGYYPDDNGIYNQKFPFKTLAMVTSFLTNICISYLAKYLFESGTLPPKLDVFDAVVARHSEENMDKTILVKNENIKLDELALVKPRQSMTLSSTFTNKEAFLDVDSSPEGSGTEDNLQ
Active and inactive are the calls of the source.
A collection of compounds and their measured IC50
MEASURED_PROPERTY: IC50

>  <COMPOUND>
O=C(COc1ccccc1Br)c1ccc(O)cc1O

>  <OBSERVED_RESULT>
2.29 µM (active)

$$$$
>  <COMPOUND>
COc1ccc(/C=C2/SC(=O)N(CCCCCC(=O)Nc3ccccc3C(=O)O)C2=S)cc1

>  <OBSERVED_RESULT>
13.8 µM (active)

$$$$
>  <COMPOUND>
CCCNS(=O)(=O)c1cccc(C(=O)NC2CCCc3ccccc32)c1 (stereo not given)

>  <OBSERVED_RESULT>
13.5 µM (active)

$$$$
>  <COMPOUND>
Cc1ccccc1-n1c(C)cc(/C=N/NC(=O)c2ccc(CN3CCOCC3)cc2)c1C

>  <OBSERVED_RESULT>
7.94 µM (active)

$$$$
>  <COMPOUND>
Cc1ccc(S(=O)(=O)N2[C@@H](c3ccc(Cl)cc3)C(C(=O)O)=CC[C@H]2c2ccc(Cl)c(Cl)c2)cc1

>  <OBSERVED_RESULT>
0.794 µM (active)

$$$$
>  <COMPOUND>
CC(C)(C)NCC(O)Cn1cc(C=O)c2ccccc21 (stereo not given)

>  <OBSERVED_RESULT>
0.738 µM (active)

$$$$
>  <COMPOUND>
CN(C)C1(C/N=C/c2cc(Cl)cc([N+](=O)[O-])c2O)CCCCC1

>  <OBSERVED_RESULT>
14.5 µM (active)

$$$$
>  <COMPOUND>
CCc1nn2c(NCCOC)cc(C)nc2c1-c1ccc(F)cc1

>  <OBSERVED_RESULT>
14.5 µM (active)

$$$$
>  <COMPOUND>
O=C(CSc1nnc(-c2ccncc2)n1Cc1ccco1)c1ccc(Cl)cc1

>  <OBSERVED_RESULT>
1.91 µM (active)

$$$$
>  <COMPOUND>
COc1cc(/C=C2\SC(NS(=O)(=O)c3ccccc3)=NC2=O)c([N+](=O)[O-])cc1OC

>  <OBSERVED_RESULT>
4.17 µM (active)

$$$$
